Target: Ndi1 (Saccharomyces cerevisiae)
Sequence (P32340 27-513): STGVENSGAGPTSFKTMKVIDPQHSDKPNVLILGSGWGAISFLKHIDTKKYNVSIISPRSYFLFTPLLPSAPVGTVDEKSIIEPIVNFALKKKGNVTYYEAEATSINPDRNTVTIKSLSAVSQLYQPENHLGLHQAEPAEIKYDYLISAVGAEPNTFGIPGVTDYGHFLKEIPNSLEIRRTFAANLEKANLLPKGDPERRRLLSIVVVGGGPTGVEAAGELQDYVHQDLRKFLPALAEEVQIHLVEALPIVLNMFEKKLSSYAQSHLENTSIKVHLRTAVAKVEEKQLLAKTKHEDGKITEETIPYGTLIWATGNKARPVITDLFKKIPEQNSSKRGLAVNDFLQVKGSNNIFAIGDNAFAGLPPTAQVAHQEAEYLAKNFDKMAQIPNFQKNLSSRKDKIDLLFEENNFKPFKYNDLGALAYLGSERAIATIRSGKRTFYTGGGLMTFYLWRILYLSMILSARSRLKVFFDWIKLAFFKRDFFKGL

| compound | units label | Ki |
| --- | --- | --- |
| CCCCCCCCCCCCc1cc(=O)c2ccccc2n1O [AC0-12, 1-hydroxy-2-dodecyl-4(1 H) quinolone] | µM | 0.014 |
| C/C=C(C)/C=C/C=C/[C@H](OC)[C@@H](C)[C@@H](OC)[C@@H](C)CCc1oc2c(O)c(OC)cc(OC)c2c(=O)c1C | µM | 0.0939 |
| CC(/C=C/[C@@]1(C)[C@H](C)CCC(=O)[C@@H]1C)=C\Cc1c(O)c(Cl)c(C)c(C=O)c1O | µM | 0.728 |
